EXPERIMENT_NOTES: gradient 5% acetonitrile 3 min, to 50% in 2 min, to 85% in 15 min, held 3 min, 100 µL/min
EXPERIMENTAL_PARAMETERS: column: Zorbax Extend-C18 2.1 x 50 mm; eluents: water / acetonitrile, 0.1% formic acid
Label T when RP-LC retention time < 800 s; otherwise F.

Does this compound meet the criterion RP-LC retention time < 800 s? Cc1cc(N2CCN(c3ccccc3)CC2)nc2ccccc12
T

Again, but for Cc1ccc(S(=O)(=O)N2CCC3(CC2)OCCS3)s1
F

Again, but for CCNC(=O)N1CCC(c2noc(-c3cccnc3)n2)C1 (stereo not given)
T

====

Each record here notes measured RP-LC retention time.
EXPERIMENT_NOTES: gradient 5% acetonitrile 3 min, to 50% in 2 min, to 85% in 15 min, held 3 min, 100 µL/min
EXPERIMENTAL_PARAMETERS: column: Zorbax Extend-C18 2.1 x 50 mm; eluents: water / acetonitrile, 0.1% formic acid
A number alone suffices; assume s.

CCCc1ccc(S(=O)(=O)N2CCC(C(=O)NCc3csc(-c4ccccc4)n3)CC2)cc1 :: 1090

What does the record list as RP-LC retention time for COCCN(CC(=O)N1CCc2sccc2C1COc1ccccc1C)C(=O)CC(C)C (stereo not given) ?
973

Again, but for COc1cc(N2C=C(C#N)S(=O)(=O)c3ccc(Cl)cc32)c(OC)cc1Cl
1050

Again, but for Cc1ccc(Nc2c(-c3cccc([N+](=O)[O-])c3)nc3cc(C)ccn23)cc1
794

Again, but for CCc1cccc(NC(=O)N2CCC(OC3CCN(S(C)(=O)=O)CC3)CC2)c1
803

Again, but for COc1cc(OC)c(NC(=O)N(C)CCc2noc(COc3ccccc3)n2)cc1Cl
957

Again, but for CCc1cc(=O)n(CC(=O)Nc2cc(Cl)ccc2OC)c(N2CCOCC2)n1
935

Again, but for CN(CC1CCOCC1)C(=O)Nc1ccccc1F
720

Again, but for O=S(=O)(c1cccc(-c2nnc(SC/C=C/c3ccccc3)o2)c1)N1CCOCC1
980

Again, but for CCc1ccc(-c2csc(NC(=O)C3CCCO3)n2)cc1 (stereo not given)
1020

Again, but for Cc1ccc(Cl)cc1NS(=O)(=O)c1cc2c(s1)CCN(C(=O)C1CC1)C2
901

Again, but for O=C(c1cc(-c2ccc(F)cc2)c[nH]1)N1CCc2ccccc21
1000

Again, but for Cc1c(CN2CCSCC2)nnn1-c1ccc(F)cc1
610

Again, but for Cc1ccc(C)c(C(=O)N2CCC(COc3ccc(C(=O)NC(C)C)cc3)CC2)c1
912

====

EXPERIMENT_NOTES: gradient 5% acetonitrile 3 min, to 50% in 2 min, to 85% in 15 min, held 3 min, 100 µL/min
EXPERIMENTAL_PARAMETERS: column: Zorbax Extend-C18 2.1 x 50 mm; eluents: water / acetonitrile, 0.1% formic acid
Each record here notes measured RP-LC retention time.
A number alone suffices; assume s.

c1ccc(-n2cnnc2C2CCCCN2Cc2ccncc2)cc1 (centres undefined) :: 584
COCCNC(=O)c1cc2c(n(-c3ccc(C(F)(F)F)cc3)c1=O)CCCC2=O :: 786
COc1cc(C(=O)Nc2nc3c(C)cc(Cl)cc3s2)cc(OC)c1OC :: 1120
Cc1ccccc1CNC(=O)CCc1conc1-c1ccc(F)cc1 :: 922
Cc1nnc2ccc(S(=O)(=O)Nc3ccc(F)cc3)cn12 :: 670

What does the record list as RP-LC retention time for CCCN(C(=O)c1cccc(F)c1)c1nc(-c2ccccc2)cs1 ?
1310

Again, but for O=S(=O)(c1ccc(F)c(Cl)c1)N1CC(F)(F)C[C@H]1CN1CCc2ccccc2C1
791

Again, but for O=S(=O)(c1ccccc1Cl)N1CC(F)(F)C[C@H]1CN1CCc2ccccc2C1
760

Again, but for Cc1cc(NC(=O)c2ccc(=O)n(C)n2)no1
598

Again, but for COc1ccc(-n2c(=O)c3sccc3n(Cc3nc(-c4ccccc4C)no3)c2=O)cc1
1000
